B1: TRIM55 (parent)
chain: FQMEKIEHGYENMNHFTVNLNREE

- Variants of: B1
- experimental details: protein stability index of a GFP-peptide fusion (GPS, HEK-293T) (PSI 1-6); higher = more stable;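 further: lentivirally expressed fusions sorted by FACS into six bins by GFP to DsRed ratio, PSI derived from sequencing read proportions per bin multiplied by bin number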
- conditions used: c terminus: a fixed tail appended
Here the recorded protein stability index is given for each entry.
Reply with the value as a number alone.

G9N : 3.26

Exercise: # query: protein stability index of entry G9P
Key: 2.93

Exercise: Form field: reported protein stability index of H8C
Key: 2.65

Exercise: // query protein stability index value for entry G9Q
Key: 3.05

Exercise: Which protein stability index value is on record for N19E ?
Key: 3.28

Exercise: Bench note: what protein stability index did I6D show?
Key: 3.25

Exercise: # input variant: N21Y ; wanted: its protein stability index
Key: 2.5
